# Test name: soluble on expression in E. coli; label from the status in PepcDB or PDB records
Measurement type: soluble on expression in E. coli

Recorded result, DARFSLGGYAGGMYDVHVKNSWYVQPQLLFTYEEFRSKTRLGTDSFFSKFNLELPILASYNVALNNKWNLHINAGPYLSYAMFGRDKSIDYAYGNGMHSSLGWWHQDFPDHFTYGGRAGVSLESEHFIYTIDGKCSLRKRPFGRSVSLSAGVGYKF , soluble on expression in E. coli: not soluble

Recorded soluble on expression in E. coli (sequence MGSDKIHHHHHHMQIDDFASNLRLLCSTESSVSAVCRQIGVNRQQFSKYLSGAARPSPSNMRKIAVHFGVRPAEFMLPADEFESHPSVAGKLVGPSVTHSDRDGFESAFRGQTIPLRRYLGYYLSYFLTQSWENSIICAIVRLDEVNGLIRCRSLERSIDPDDGSLYLSKYDGRVAMLGNRIFVMEYQTLARDALVETVLYPVGRGQLQYLRGTTFGITSRQRTPFTSPVVWRYLDDFPTLRDVMRKVGRYDINSAKLDPTARSILLGGHNKGTD ): not soluble
